assay: Plasma concentration in collagen-induced arthritic DBA/1 mouse model at 100 mg/kg, po BID measured 6 hrs post last dose; type: ADME, organism-based; parameters: dose 100 mg/kg, route oral
experimentalEndpoint: concentration at 6 h (nM)
Please reply with the bare figure in nM and do not write the unit itself.

Prompt: Indicate its recorded concentration at 6 h; the compound in question is O=C1NC2(CC2)Cc2[nH]c3c(c21)CCc1cnc(-c2ccc(F)nc2)cc1-3
Completion: 2400

----------
assay: Half life in rat at 1 mg/kg, po; type: ADME, organism-based; parameters: dose 1 mg/kg, route oral; conditions: in vivo
experimentalEndpoint: half-life (h)
Please reply with the bare figure in h and do not write the unit itself.

Prompt: Indicate its recorded half-life; the compound in question is O=C1NC2(CC2)Cc2[nH]c3c(c21)CCc1cnc(-c2ccc(F)nc2)cc1-3
Completion: 1.3

----------
test: Oral bioavailability in rat at 1 mg/kg; format: ADME, organism-based; conditions: in vivo
experimentalEndpoint: bioavailability (%)
Please reply with the bare figure in % and do not write the unit itself.

Prompt: Indicate its recorded bioavailability; the compound in question is O=C1NC2(CC2)Cc2[nH]c3c(c21)CCc1cnc(-c2ccc(F)nc2)cc1-3
Completion: 24
